Reference source: paper PMC12703733

Type: cell-based, human
Conditions: human, Cell viability (%)
Bridge positions count the residues as written; N and C are the ends. Square brackets hold non-standard residues; d marks the D form. Peptide text beside a SMILES is read from it. * marks the point of attachment. Phe(4-guanidino) = N=C(N)Nc1ccc(C[C@H](N)C(=O)O)cc1; Propanoyl(3-guanidino) = N=C(N)NCCC(=O)*

{"COMPOUND": "CC[C@H](C)[C@H](NC(=O)[C@H](CCCNC(=N)N)NC(=O)[C@H]1CCC(=O)NCCCC[C@H](NC(=O)[C@H](Cc2ccccc2)NC(=O)[C@H](Cc2c[nH]c3ccccc23)NC(=O)[C@@H]2CCCN2C(=O)[C@@H](NC(=O)[C@H](Cc2ccccc2)NC(=O)CCNC(=N)N)C(C)C)C(=O)N[C@@H](CCCCN)C(=O)N[C@@H](Cc2ccccc2)C(=O)N[C@H](CC(C)C)C(=O)N1)C(=O)N[C@@H](CC(C)C)C(N)=O [Peptide 4, guanidino-βAla-FVPWF[KKFle]RIL] ({Propanoyl(3-guanidino)}-FVPWFKKF[dL][dE]RIL-NH2; lactam 6-10)", "UNIT_TAG": "%", "viability at 2 h, 50 µM": 7}
{"COMPOUND": "CC[C@H](C)[C@H](NC(=O)[C@H](CCCNC(=N)N)NC(=O)[C@H]1CCC(=O)NCCCC[C@H](NC(=O)[C@H](Cc2ccccc2)NC(=O)[C@H](Cc2c[nH]c3ccccc23)NC(=O)[C@@H]2CCCN2C(=O)[C@@H](NC(=O)[C@@H](N)Cc2ccccc2)C(C)C)C(=O)N[C@@H](CCCCN)C(=O)N[C@@H](Cc2ccc(NC(=N)N)cc2)C(=O)N[C@H](CC(C)C)C(=O)N1)C(=O)N[C@@H](CC(C)C)C(N)=O [Peptide 10, FVPWF[KK(p-guanidino)Fle]RIL] (H-FVPWFKK[Phe(4-guanidino)][dL][dE]RIL-NH2; lactam 6-10)", "UNIT_TAG": "%", "viability at 2 h, 50 µM": 101}

---

Assay type: cell-based, human
Settings: Cell viability (%)
Bridge positions count the residues as written; N and C are the ends. Square brackets hold non-standard residues; d marks the D form. Peptide text beside a SMILES is read from it.

{"COMPOUND": "CC[C@H](C)[C@H](NC(=O)[C@H](CCCNC(=N)N)NC(=O)[C@H]1CCC(=O)NCCCC[C@H](NC(=O)[C@H](Cc2ccccc2)NC(=O)[C@H](Cc2c[nH]c3ccccc23)NC(=O)[C@@H]2CCCN2C(=O)[C@@H](NC(=O)[C@@H](N)Cc2ccccc2)C(C)C)C(=O)N[C@@H](CCCCN)C(=O)N[C@@H](Cc2ccccc2)C(=O)N[C@H](CC(C)C)C(=O)N1)C(=O)N[C@@H](CC(C)C)C(N)=O [Peptide 2, FVPWF[KKFle]RIL] (H-FVPWFKKF[dL][dE]RIL-NH2; lactam 6-10)", "viability at 6.25 µM (%)": 96}

---

Format: cell-based, human
Settings: human, Cell viability (%)
Bridge positions count the residues as written; N and C are the ends. Square brackets hold non-standard residues; d marks the D form. Peptide text beside a SMILES is read from it. Phe(4-guanidino) = N=C(N)Nc1ccc(C[C@H](N)C(=O)O)cc1
The entries below come with measured viability at 2 h, 25 µM values attached.

{"COMPOUND": "CC[C@H](C)[C@H](NC(=O)[C@H](CCCNC(=N)N)NC(=O)[C@H]1CCC(=O)NCCCC[C@H](NC(=O)[C@H](Cc2ccccc2)NC(=O)[C@H](Cc2c[nH]c3ccccc23)NC(=O)[C@@H]2CCCN2C(=O)[C@@H](NC(=O)[C@@H](N)Cc2ccc(NC(=N)N)cc2)C(C)C)C(=O)N[C@@H](CCCCN)C(=O)N[C@@H](Cc2ccccc2)C(=O)N[C@H](CC(C)C)C(=O)N1)C(=O)N[C@@H](CC(C)C)C(N)=O [Peptide 6, (p-guanidino)FVPWF[KKFle]RIL] (H-[Phe(4-guanidino)]VPWFKKF[dL][dE]RIL-NH2; lactam 6-10)", "viability at 2 h, 25 µM, %": 101}
{"COMPOUND": "CC[C@H](C)[C@H](NC(=O)[C@H](CCCNC(=N)N)NC(=O)[C@H]1CCCCNC(=N)NCCCC[C@H](NC(=O)[C@H](Cc2ccccc2)NC(=O)[C@H](Cc2c[nH]c3ccccc23)NC(=O)[C@@H]2CCCN2C(=O)[C@@H](NC(=O)[C@@H](N)Cc2ccccc2)C(C)C)C(=O)N[C@@H](CCCCN)C(=O)N[C@@H](Cc2ccccc2)C(=O)N[C@H](CC(C)C)C(=O)N1)C(=O)N[C@@H](CC(C)C)C(N)=O [Peptide 12, FVPWF{KKFlk}RIL]", "viability at 2 h, 25 µM, %": 47}
